Would you kindly list GI50 for each of these compounds?
- Test system: DU-145
- EXPERIMENTAL_PROTOCOL: NCI tumour cell line growth inhibition, 48 h
Calls of active or inactive are those of the source. Rule as the data show it: active = GI50 up to about 1.1 µM and inactive = higher.

Request the reported GI50 associated with COc1ccc(/N=N/N2CCCC2)cc1
> 100 µM (inactive)

Could you tell me which GI50 is on file for O=c1c2c(F)c(F)c(F)c(F)c2sc2nccn12 ?
19.9 µM (inactive)

Which measured GI50 value corresponds to CC[S+]1C2=C(CC(C)(C)CC2=O)[N-]c2ccccc21 (stereo unspecified) ?
> 100 µM (inactive)

If you can, please state the reported GI50 value of COc1ccc(N2C=Nn3c(nc4sc(C)c(C)c4c3=O)C2)cc1 .
> 100 µM (inactive)

What value of GI50 has been recorded for this entry: COc1cc2c(cc1OC)CC1c3cc(OC)c(OC)cc3CCN1CC2 (stereo unspecified)
> 100 µM (inactive)

What measured GI50 goes with Cc1cc(NS(=O)(=O)c2ccc(NO)cc2)no1 ?
> 100 µM (inactive)

----------
Give measured GI50 for each item. Keep answers brief.
- Tested on: CAKI-1
- EXPERIMENTAL_PROTOCOL: NCI tumour cell line growth inhibition, 48 h
Active and inactive are the calls of the source. Rule as the data show it: active = GI50 up to about 1.1 µM and inactive = higher.

Param readout = GI50; param system = CAKI-1; param query = C=C1C[C@]23C[C@@]1(O)CC[C@H]2[C@@]12C=C[C@H](O)[C@@](C)(C(=O)O1)[C@H]2[C@@H]3C(=O)O ; response: value
> 100 µM (inactive)

# query: GI50 | item CCOc1ccc2nc(-c3ccc(O)cc3)sc2c1 | system: CAKI-1
36.7 µM (inactive)

Lab note: need GI50 with CAKI-1 for entry COc1cc(/C=N/N=C(\N)NO)cc(OC)c1OC , please look it up.
72.4 µM (inactive)

Could you share what GI50 was measured for Cn1c(=O)c2c(ncn2CCSS(=O)(=O)O)n(C)c1=O , tested on CAKI-1?
> 100 µM (inactive)

Record lookup: for CAKI-1, what GI50 belongs to C=C1CC(C)(c2ccc(Nc3nc4ccccc4c4occc34)cc2)OC1=O (stereo unspecified) ?
15.8 µM (inactive)

Reported GI50 for CAKI-1, given COc1ccc2c(C3(O)CCNCC3)c[nH]c2c1 ?
> 100 µM (inactive)

State its GI50 on CAKI-1: CCOC(=O)c1cc(C(=O)c2ccccc2)n2nc(-c3ccc(Cl)cc3)ccc12
31.8 µM (inactive)

Hi! What's the reported GI50 for Cc1c(-c2ccccc2)c(C#N)c2nnn(-c3ccccc3)c(=O)n12 on CAKI-1?
> 100 µM (inactive)

Notebook entry, CAKI-1 assay: GI50 of Nc1ncnc2c1ncn2C1OC(CO)CC1O (stereo unspecified) = ?
> 100 µM (inactive)

Under CAKI-1: GI50 value of Cc1sc2nc(-c3cccc([N+](=O)[O-])c3)c(/C=N/N=C(N)N)n2c1C ?
1.82 µM (inactive)

What value of GI50 on CAKI-1 does C[N+](C)(C)CC1CCc2ccccc2C1=O (stereo unspecified) have?
4.97 µM (inactive)

----------
- Test system: NCI/ADR-RES
- EXPERIMENTAL_PROTOCOL: NCI tumour cell line growth inhibition, 48 h
Activity calls are given as the source filed them. No stated cut-off is given here; in the data, active = GI50 up to about 1.1 µM and inactive = higher.
RECORDED_ENDPOINT: GI50

Suppose we examine the compound CCCCCCCC/C=C\CCCCCCCC(=O)O [OLEIC ACID] ; what GI50 value has been reported?
102 µM (inactive)

Which measured GI50 value corresponds to CO/C(C)=N/CCC1=CCCCC1 ?
> 100 µM (inactive)

GI50 for O=c1c(/C=C/c2c(O)ccc3ccccc23)nnc2sc(-c3cccc(Br)c3)nn12 ?
22.8 µM (inactive)

Query: GI50; subject: O=[N+]([O-])C(/C=C(\Cl)[N+](=O)[O-])=C(N1CCOCC1)N1CCOCC1
> 100 µM (inactive)

Which measured GI50 value corresponds to CC1(C)[C@@H](Cn2nnc3c(N)ncnc32)CC[C@@]1(C)CO ?
> 100 µM (inactive)

Which GI50 is listed for Cn1c2c(c3ccccc31)CC(=O)N1CCCC(C1)CC21OCCO1 (configuration not stated) ?
> 100 µM (inactive)

// lookup GI50 for NC1CNC(=O)c2c(Cl)sc(Cl)c21 (configuration not stated)
> 100 µM (inactive)

Any idea what GI50 was measured for Cn1c(=O)c2c(ncn2CCSS(=O)(=O)O)n(C)c1=O ?
> 100 µM (inactive)

For the compound shown here, COC(=O)c1cc(OS(=O)(=O)C(F)(F)F)c(=O)n2c1CCCC2 , give the reported GI50.
> 100 µM (inactive)

May I ask what GI50 has been recorded for C[n+]1c(/C=C/c2ccc(O)c3ncccc23)[se]c2ccccc21 ?
3.48 µM (inactive)

So what's the measured GI50 for this one? CC1CN=C(Nc2ccc(F)c(Cl)c2)S1 (configuration not stated)
42.5 µM (inactive)

Reported GI50 for N#Cc1c(N)nc(Sc2ccccc2N)c(C#N)c1-c1ccccc1 : what is it?
11.5 µM (inactive)

----------
- Test system: A498
- EXPERIMENTAL_PROTOCOL: NCI tumour cell line growth inhibition, 48 h
Active and inactive are the calls of the source. No stated cut-off is given here; in the data, active = GI50 up to about 1.1 µM and inactive = higher.
RECORDED_ENDPOINT: GI50

Give recorded GI50 with A498 for the following compound: CCCCCCCCCCOC(=O)c1cc[n+](C)cc1
15.6 µM (inactive)

Value wanted: GI50 (A498) of entry CCOc1ccc2nc(-c3ccc(O)cc3)sc2c1
30.4 µM (inactive)

# value lookup — system A498, readout GI50, item CCCCCCCCCCCc1noc2c1C(=O)C(O)CC2 (stereo not drawn)
34.9 µM (inactive)

Any idea what GI50 came out for CCCCNC(=O)OCC(COc1ccccc1OC)OC(=O)NCCCC (stereo not drawn) on A498?
> 100 µM (inactive)

GI50 of C[N+](C)(C)CC1CCc2ccccc2C1=O (stereo not drawn) on A498?
26.2 µM (inactive)

Short answer please: GI50, A498, entry O=C(c1ccco1)C1CC(c2ccc3ccccc3c2O)=NN1 (stereo not drawn)
> 100 µM (inactive)

Please state recorded GI50 (tested on A498) of CCC(C#N)NCc1cccc(CNC(C#N)CC)c1 (stereo not drawn)
> 100 µM (inactive)

So what GI50 did COC(=O)c1cc(OS(=O)(=O)C(F)(F)F)c(=O)n2c1CCCC2 get with A498?
> 100 µM (inactive)

Under A498: GI50 value of O=C(/C=C/c1ccc2c(c1)OCO2)Cc1nc2ccccc2[nH]c1=O ?
20.3 µM (inactive)

A498 / GI50 / CCOC(=O)N1CCc2cc(OC)c(OC)cc2/C1=C\c1ccc(OC)c(OC)c1 : value?
23.2 µM (inactive)

Reported GI50 for A498, given Cn1c2c(c3ccccc31)CC(=O)N1CCCC(C1)CC21OCCO1 (stereo not drawn) ?
> 100 µM (inactive)

Lab request: please report GI50 under test system A498 for CNC(C)Cc1ccc(O)cc1 (stereo not drawn)
> 100 µM (inactive)

Please state recorded GI50 (tested on A498) of C#C[C@H]1CCCCCC1O (stereo partly drawn)
> 100 µM (inactive)

----------
- Test system: SNB-19
- EXPERIMENTAL_PROTOCOL: NCI tumour cell line growth inhibition, 48 h
The source made the active and inactive calls. Rule as the data show it: active = GI50 up to about 1.1 µM and inactive = higher.
Outcome (select one): class 1 = active, class 0 = inactive

Please indicate how the test categorized CC1OC(O[C@@H]2C=C3CC[C@@H]4[C@H](CC[C@]5(C)[C@@H](c6ccc(=O)oc6)CC[C@]45O)[C@@]3(C)CC2)C(O)C(O)C1O (stereo partly specified) .
class 1

State the result this test recorded for CCOC(=O)c1c(-c2ccc(Br)cc2)ccn1C .
class 0

Check the results log: what was the call for OC1CN2CCS[C@H]2C(O)C1O (stereo partly specified) ?
class 0

Look up the recorded call for O=C1c2cc3c(cc2[C@@H]2C(O)[C@H]4O[C@H]4C4CCN1C42)OCO3 (stereo partly specified) in this test.
class 0

Outcome? NS(=O)(=O)c1cc(C(=O)O)c(Cl)c([N+](=O)[O-])c1Cl
class 0

Per the records of this test, what outcome belongs to CCCn1cc2c(SC)nc(SC)nc2n1 ?
class 0

----------
I'd appreciate it if you could supply GI50 values for the items below.
- System: SF-295
- EXPERIMENTAL_PROTOCOL: NCI tumour cell line growth inhibition, 48 h
Calls of active or inactive are those of the source. Rule as the data show it: active = GI50 up to about 1.1 µM and inactive = higher.

Requested read-out: GI50. Entry: CS(=O)(=O)NNS(=O)(=O)c1cccc([N+](=O)[O-])c1
> 100 µM (inactive)

Recorded GI50 of CCOC(=O)c1sc2nc(SC)nc3c2c1NC(=O)CN3c1ccc(F)cc1 , please.
20.1 µM (inactive)

Fill in the blank: the reported GI50 of CSc1n[n+](C)cc(N)c1N is ____.
> 100 µM (inactive)

Look up GI50: COc1cc(NC(C)=O)ccc1C(=O)N/N=C/c1ccco1
> 100 µM (inactive)

Query: GI50; subject: COC(=O)CCc1cc(OC)c(O)c(C(Cc2ccc(OC)c(OC)c2)C(=O)OC)c1 (stereo not given)
> 100 µM (inactive)

What does the data say about its GI50? Entry: O=C1NC(=O)C(C(CC(=O)c2ccc(Cl)cc2)c2ccc(Cl)cc2)C(=O)N1 (stereo not given)
> 100 µM (inactive)

Need GI50, item COc1ccc2c([nH]c3c(O)c(-c4c(C)cc5c([nH]c6c(CC=C(C)C)c(OC)ccc65)c4O)c(C)cc32)c1CC=C(C)C
> 100 µM (inactive)

What does the record list as GI50 for COC(=O)/C=C1\CCC(C)O1 (stereo not given) ?
> 100 µM (inactive)

Item CCCCCCCCSC1=C(Cl)C(=O)C(OC)=C(OC)C1=O has what recorded GI50?
12.5 µM (inactive)

# lookup: GI50 of CCOC1=NC(C(F)(F)F)(C(F)(F)F)N=C(N2CCOCC2)O1
> 100 µM (inactive)
